# SYSTEM NAME: Gal6P(b1-4)GlcNAc
# ASSAY OVERVIEW: glycan array binding signal (z-score within array); higher = stronger binding
# DETAILS: glycan notation: IUPAC condensed, linker removed
This is one part of a sample in which the strongest signals are shown more often than they occur.
Below, each of the binders is paired with its reported glycan array binding signal (z-score) value.
REPORTED METRIC: glycan array binding signal (z-score)

{"columns": ["BINDER", "MEASURED"],
 "data": [
  ["Epa7 (Candida glabrata), Q6DTM6_CANGB (protein) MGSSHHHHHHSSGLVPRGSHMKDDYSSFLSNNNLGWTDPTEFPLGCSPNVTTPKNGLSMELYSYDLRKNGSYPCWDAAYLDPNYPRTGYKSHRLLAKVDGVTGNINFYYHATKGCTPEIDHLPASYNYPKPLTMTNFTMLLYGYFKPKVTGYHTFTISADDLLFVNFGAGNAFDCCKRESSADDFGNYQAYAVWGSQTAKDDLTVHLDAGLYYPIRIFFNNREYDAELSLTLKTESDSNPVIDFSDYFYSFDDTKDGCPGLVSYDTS", -0.241],
  ["AFL5 (Aspergillus fumigatus), Q4WB00 (protein) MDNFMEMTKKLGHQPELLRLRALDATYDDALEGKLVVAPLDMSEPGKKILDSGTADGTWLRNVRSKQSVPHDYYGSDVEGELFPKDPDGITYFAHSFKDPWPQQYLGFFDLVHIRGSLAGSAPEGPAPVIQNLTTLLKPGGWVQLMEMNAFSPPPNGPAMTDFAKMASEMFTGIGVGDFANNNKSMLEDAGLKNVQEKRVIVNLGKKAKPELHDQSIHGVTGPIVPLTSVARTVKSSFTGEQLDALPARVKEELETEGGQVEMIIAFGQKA", -0.398],
  ["Epa1 (Candida glabrata) (protein) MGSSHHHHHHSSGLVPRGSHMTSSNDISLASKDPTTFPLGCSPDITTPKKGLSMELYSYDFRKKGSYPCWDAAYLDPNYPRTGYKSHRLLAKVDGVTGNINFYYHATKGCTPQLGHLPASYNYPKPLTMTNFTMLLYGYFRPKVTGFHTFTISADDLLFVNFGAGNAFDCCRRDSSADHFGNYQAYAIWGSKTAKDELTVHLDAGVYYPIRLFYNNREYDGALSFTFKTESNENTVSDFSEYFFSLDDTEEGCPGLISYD", -0.272],
  ["SSR2 (Sclerotium rolfsii) (protein) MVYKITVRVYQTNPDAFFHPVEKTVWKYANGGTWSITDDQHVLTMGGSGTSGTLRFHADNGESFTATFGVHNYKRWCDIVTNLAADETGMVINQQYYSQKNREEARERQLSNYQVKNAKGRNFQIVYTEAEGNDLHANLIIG", -0.287]
]}
